These entries and their values trace back to PubChem BioAssay (NCATS).

system: CP265; test: qHTS profiling for inhibitors of Plasmodium falciparum proliferation (AID 504749); further: nearly all actives have a fitted effect of over 60% in size; further: potency means the concentration at half of the fitted maximal effect; details: P. falciparum in erythrocytes, SYBR Green DNA, 72 h; series mostly up to 28.7 µM
Records with an inconclusive call do not appear. Activity calls are given as the source filed them. The call rests on the fitted dose curve; in most records, active means well fitted inhibition curve with a large enough effect; inconclusive means small, poorly fitted or top-dose-only effect; inactive means flat fitted curve, though single readings scatter.
measured_endpoint: Potency

[[record]]
compound = "C1OCOCO1"
measured_result = "inactive"

[[record]]
compound = "CN1CC[C@H](CN2c3ccccc3Sc3ccccc32)C1"
measured_result = "11.2 µM (active)"

[[record]]
compound = "O=NCc1ccc([N+](=O)[O-])o1"
measured_result = "inactive"

[[record]]
compound = "CC(=O)OC1CC2CCC1(C)C2(C)C (stereo not drawn)"
measured_result = "inactive"

[[record]]
compound = "Cc1cc(CC(C)CC(C)(C)C)n(O)c(=O)c1 (stereo not drawn)"
measured_result = "2.82 µM (active)"

[[record]]
compound = "CO/N=C(/C(=O)N[C@@H]1C(=O)N2C(C(=O)O)=CCS[C@H]12)c1csc(N)n1"
measured_result = "inactive"

[[record]]
compound = "CC(=O)O[C@@]12CO[C@@H]1C[C@H](O)[C@@]1(C)C(=O)[C@H](O)C3=C(C)[C@@H](OC(=O)C(O)[C@@H](NC(=O)OC(C)(C)C)c4ccccc4)C[C@@](O)([C@@H](OC(=O)c4ccccc4)[C@H]21)C3(C)C (stereo partly drawn)"
measured_result = "0.0794 µM (active)"

[[record]]
compound = "S=C1NC=NC2N=CNC12 (stereo not drawn)"
measured_result = "inactive"


###

target: Rap guanine nucleotide exchange factor 3 (Homo sapiens); test: Confirmatory qHTS for agonist of cAMP-regulated guanine nucleotide exchange factor 3 (EPAC1) (AID 1645881); conditions: EPAC1 Rap1B BODIPY-GDP exchange fluorescence; series mostly up to 154 µM;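 further: EPAC1 catalysed release of BODIPY-GDP from Rap1B seen as fluorescence loss; nearly all actives have a fitted effect of over 75% in size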
Records with an inconclusive call do not appear. Active and inactive are the calls of the source. Calls come from the whole dose curve; as a rule, active = well fitted activation curve with a large enough effect; inconclusive = small, poorly fitted or top-dose-only effect; inactive = no such curve, though single readings can be large or run the other way.
measured_endpoint: outcome

[[record]]
compound = "O=C1Nc2ccccc2/C1=N\\N=C\\c1ccc(O)c(O)c1"
measured_endpoint = "outcome"
measured_result = "inactive"

[[record]]
compound = "C/C=C/C(=O)Nc1cccc(C2=NOC3(C2)C[C@@H](C(N)=O)N(C(=O)/C(C)=C/C)C3)c1 (stereo not given in full)"
measured_endpoint = "outcome"
measured_result = "inactive"

[[record]]
compound = "O=C(Cc1c(Cl)cccc1Cl)Nc1ccc(S(=O)(=O)Nc2ncccn2)cc1"
measured_endpoint = "outcome"
measured_result = "inactive"

[[record]]
compound = "COc1ccc(C(=O)Nc2ccccc2-c2nnn(CC(N)=O)n2)cc1"
measured_endpoint = "outcome"
measured_result = "inactive"

[[record]]
compound = "CC(=O)C1=CCC(c2ccccc2Cl)N(S(=O)(=O)c2ccc(C)cc2)C1 (stereo not given)"
measured_endpoint = "outcome"
measured_result = "inactive"


###

test: qHTS for differential inhibitors of proliferation of Plasmodium falciparum line D10 (AID 1877); details: series mostly up to 28.7 µM;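 further: parasites grown with compound for 72 h before DNA staining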; further: potency means the concentration at half of the fitted maximal effect
Inconclusive results are not listed. The source made the active and inactive calls. Calls follow the shape of the dose curve; as a rule, active = well fitted curve in the direction sought with a large enough effect; inconclusive = small, poorly fitted or top-dose-only effect, or another doubt; inactive = no such curve, though single readings can be large or run the other way.
measured_endpoint: Potency

[[record]]
molecule = "CC(=O)O[C@]1(C(C)=O)CC[C@H]2C3C=C(Cl)C4=CC(=O)[C@@H]5C[C@H]5[C@]4(C)C3CC[C@@]21C (stereo partly specified)"
measured_endpoint = "Potency"
measured_result = "14.1 µM (active)"

[[record]]
molecule = "CC[C@H](C)C(=O)O[C@H]1CCC=C2C=C[C@H](C)[C@H](CC[C@@H]3C[C@H](O)CC(=O)O3)C21 (stereo partly specified)"
measured_endpoint = "Potency"
measured_result = "inactive"

[[record]]
molecule = "O=S(=O)(O)C1CCNCC1"
measured_endpoint = "Potency"
measured_result = "inactive"

[[record]]
molecule = "Cc1cc(N)c2ccccc2[n+]1CCCCCCCCCCCCCC[n+]1c(C)cc(N)c2ccccc21"
measured_endpoint = "Potency"
measured_result = "0.316 µM (active)"

[[record]]
molecule = "Cc1c(C)c2c(c(C)c1O)CCC(C)(CN1CCN(c3cc(N4CCCC4)nc(N4CCCC4)n3)CC1)O2 (stereo unspecified)"
measured_endpoint = "Potency"
measured_result = "0.501 µM (active)"

[[record]]
molecule = "N#Cc1c(-c2ccccc2)no[n+]1[O-]"
measured_endpoint = "Potency"
measured_result = "14.1 µM (active)"

